Task for the reader: assign each of the following molecules its reported Sox 17 Intensity average.
- System: H1 or H9 human embryonic stem cells
- Method description: Activin A bioassay: differentiation of human embryonic stem cells to definitive endoderm, cell number and SOX17 intensity by high content analysis (96-well, four days);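 note: total fluorescence of the cell multiplied by cell area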
- Format: cell-based
- Details: supernatant concentration 1x, assay dilution 1:20
Note: the reply should be a number with no unit written.

molecule ACTN10: activin A variant peptide, SEQ ID 11 (protein) GLECDGKVNYCCKKQDFVSFKDIGWNDWIIAPSGYHANRCSGLCPSHIAGTSGSSLSFHSTVINHYRMRGHSPFAQMGSCCIPTKLRPMSMLYYDDGQNIIKKDIQNMIVEECGCS , Sox 17 Intensity average observed: 7.52E+05

Sample ACTN12: activin A variant peptide, SEQ ID 13 (protein) GLECDGKVNYCCKKQNFVSFKDIGWNDWIIAPSGYHANECSGLCPSHIAGTSGSSLSFHSTVINHYRMRGHSPFSQMGSCCIPTKLRPMSMLYYDDGQNIIKKDIQNMIVEECGCS ; Sox 17 Intensity average observed: 1.10E+06
